experimental_parameters: in sec-butanol, 303.2 K
Examples of molecules with documented solubility (mole fraction) follow.

molecular_string: C[C@@H]1CC[C@@]2(OC1)O[C@H]1C[C@H]3[C@@H]4CC=C5C[C@@H](O)CC[C@]5(C)[C@H]4CC[C@]3(C)[C@H]1[C@@H]2C
solubility (mole fraction): 0.000436
//
molecular_string: C[C@]12CC[C@@H]3c4ccc(O)cc4CC[C@H]3[C@@H]1C[C@@H](O)[C@@H]2O
solubility (mole fraction): 0.0032

* * *

Examples of compounds with documented solubility (mole fraction) follow.
experimental_parameters: in n-octanol, 313.2 K
measure_name: solubility (mole fraction)

molecular_string: C[C@@H]1CC[C@@]2(OC1)O[C@H]1C[C@H]3[C@@H]4CC=C5C[C@@H](O)CC[C@]5(C)[C@H]4CC[C@]3(C)[C@H]1[C@@H]2C
measure_name: solubility (mole fraction)
measurement: 0.00842

molecular_string: C[C@]12CC[C@@H]3c4ccc(O)cc4CC[C@H]3[C@@H]1C[C@@H](O)[C@@H]2O
measure_name: solubility (mole fraction)
measurement: 0.0104
